Molecular target: aldose reductase (Rattus norvegicus)
Construct: To obtain natural aldose reductase from eyeballs of SD rat; from tissue; host or cells: lens of Sprague-Dawley rat (homogenate supernatant)
Test: In vitro inhibitory effect on aldose reductase activity
Type: biochemical, SD rat
Conditions: read-out: inhibitory effect (IC50) on aldose reductase

{"Molecule": "O=C(O)CC1(CC(=O)O)CCCC1 [3,3-tetramethyleneglutaric acid]", "IC50": "24.1 µM"}

Data provenance: patent US8784911B2
